target-or-test-system: CYP3A4 (Homo sapiens, UniProt P08684)
Sequence (P08684 whole entry): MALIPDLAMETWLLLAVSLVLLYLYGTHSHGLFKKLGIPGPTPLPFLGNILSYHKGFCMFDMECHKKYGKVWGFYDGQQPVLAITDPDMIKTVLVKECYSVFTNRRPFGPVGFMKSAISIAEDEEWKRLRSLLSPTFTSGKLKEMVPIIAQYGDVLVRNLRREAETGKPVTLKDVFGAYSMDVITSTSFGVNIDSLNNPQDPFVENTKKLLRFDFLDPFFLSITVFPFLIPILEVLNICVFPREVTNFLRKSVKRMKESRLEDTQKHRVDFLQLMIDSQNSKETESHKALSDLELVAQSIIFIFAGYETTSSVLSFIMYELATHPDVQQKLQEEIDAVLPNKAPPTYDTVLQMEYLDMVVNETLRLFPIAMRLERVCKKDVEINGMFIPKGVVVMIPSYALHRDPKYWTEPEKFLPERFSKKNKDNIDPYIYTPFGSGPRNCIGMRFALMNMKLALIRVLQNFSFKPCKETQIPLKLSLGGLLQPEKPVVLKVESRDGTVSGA
assay-remarks: Determination of CYP3A4 inhibitory activity (human liver microsome, Luciferin-IPA)
experimental-context: CYP3A4 IC50 (nM), 37° C. 11 minutes
endpoint-label: IC50

INSERT INTO assay_data (smiles_code, endpoint_label, result) VALUES
  ('COc1cc(NC(=O)c2cc(=O)c3ccccc3o2)c(C(=O)Nc2ccc(CCN(Cc3ccc(-c4cccnc4)cc3)Cc3ccc4c(cnn4C)c3)cc2)cc1OC', 'IC50', '> 1000 nM'),
  ('COc1cc(NC(=O)c2cc(=O)c3ccccc3o2)c(C(=O)Nc2ccc(CCN(Cc3cccnc3)Cc3ccc4c(c3)nnn4C)cc2)cc1OC', 'IC50', '250 to 500 nM'),
  ('COC(=O)c1ccc(C(=O)Nc2ccc(CCN(Cc3ccc4c(cnn4C)c3)Cc3ccc4c(cnn4C)c3)cc2)c(NC(=O)c2cc(=O)c3ccccc3o2)c1', 'IC50', '> 1000 nM'),
  ('COc1cncc(CN(CCc2ccc(NC(=O)c3cc(OC)c(OC)cc3NC(=O)c3cc(=O)c4cc(C)ccc4o3)cc2)Cc2ccc3c(c2)c(C)nn3C)c1', 'IC50', '100 to 250 nM'),
  ('COc1cc(NC(=O)c2cc(=O)c3ccccc3o2)c(C(=O)Nc2ccc(CCN(C)Cc3ccc(-n4cncn4)cc3)cc2)cc1OC', 'IC50', '250 to 500 nM'),
  ('COC(=O)c1ccc(C(=O)Nc2ccc(CCN(Cc3ccc(OC)c(OC)c3)Cc3ccc(OC)c(OC)c3)cc2)c(NC(=O)c2cc(=O)c3ccccc3o2)c1', 'IC50', '> 1000 nM');
